Some compounds, each annotated with its measured IC50.
# TARGET OR SYSTEM: purified recombinant human JAK3 protein (Homo sapiens, UniProt P52333)
# Sequence (P52333 whole entry): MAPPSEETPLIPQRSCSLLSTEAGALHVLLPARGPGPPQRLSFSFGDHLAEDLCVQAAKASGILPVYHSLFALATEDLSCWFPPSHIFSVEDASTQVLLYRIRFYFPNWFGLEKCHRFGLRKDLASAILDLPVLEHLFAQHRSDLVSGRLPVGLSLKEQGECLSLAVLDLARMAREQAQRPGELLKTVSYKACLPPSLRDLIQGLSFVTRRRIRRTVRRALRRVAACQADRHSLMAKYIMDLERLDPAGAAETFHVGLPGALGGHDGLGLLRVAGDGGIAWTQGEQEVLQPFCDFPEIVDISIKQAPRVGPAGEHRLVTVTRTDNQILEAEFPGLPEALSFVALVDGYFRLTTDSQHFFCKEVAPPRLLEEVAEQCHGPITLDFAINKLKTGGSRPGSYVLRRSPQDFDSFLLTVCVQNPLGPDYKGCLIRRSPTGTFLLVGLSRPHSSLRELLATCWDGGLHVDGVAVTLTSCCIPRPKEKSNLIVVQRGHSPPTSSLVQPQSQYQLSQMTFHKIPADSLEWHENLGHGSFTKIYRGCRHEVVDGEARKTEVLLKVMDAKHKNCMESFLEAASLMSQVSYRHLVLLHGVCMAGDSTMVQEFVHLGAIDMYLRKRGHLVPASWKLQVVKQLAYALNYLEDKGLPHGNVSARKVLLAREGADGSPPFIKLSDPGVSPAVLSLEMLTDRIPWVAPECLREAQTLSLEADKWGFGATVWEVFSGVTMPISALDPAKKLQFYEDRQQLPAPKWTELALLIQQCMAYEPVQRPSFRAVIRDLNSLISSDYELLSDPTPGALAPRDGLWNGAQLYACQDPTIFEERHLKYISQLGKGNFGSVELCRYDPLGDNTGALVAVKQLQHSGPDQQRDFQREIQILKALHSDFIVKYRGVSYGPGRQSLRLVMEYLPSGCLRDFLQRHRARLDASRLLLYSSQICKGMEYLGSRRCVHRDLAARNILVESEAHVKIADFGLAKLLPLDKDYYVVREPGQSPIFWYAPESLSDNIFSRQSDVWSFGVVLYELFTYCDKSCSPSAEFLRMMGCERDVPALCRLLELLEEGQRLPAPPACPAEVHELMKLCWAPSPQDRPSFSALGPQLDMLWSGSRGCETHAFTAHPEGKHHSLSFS
# RUN DESCRIPTION: Measurement of JAK3 kinase-inhibitory activity
# DETAILS: substrate peptide 1 μM, ATP 5 μM, 25° C., 80 minutes
I only need the number, in nM, no unit after it.

{"columns": ["COMPOUND", "TARGET OR SYSTEM", "MEASURED NUMBER"],
 "data": [
  ["C=CC(=O)NC1CCC=C(c2ccnc3[nH]cc(-c4ccc(N)nc4)c23)C1 (stereo not drawn)", "purified recombinant human JAK3 protein (Homo sapiens, UniProt P52333)", 0.83],
  ["C=CC(=O)NC1CCC=C(c2ccnc3[nH]cc(-c4ccncc4)c23)C1 (stereo not drawn)", "purified recombinant human JAK3 protein (Homo sapiens, UniProt P52333)", 0.38],
  ["C=CC(=O)NC1CCC=C(c2ccnc3[nH]cc(-c4cccnc4)c23)C1 (stereo not drawn)", "purified recombinant human JAK3 protein (Homo sapiens, UniProt P52333)", 0.53]
]}

q: Requested read-out: IC50. Entry: C=CC(=O)NC1CCC=C(c2ccnc3[nH]cc(-c4nnc(C)o4)c23)C1 (stereo not drawn)
a: 0.62

q: Requested read-out: IC50. Entry: C=CC(=O)NC1CCC=C(c2c(-c3cnn(C)c3)cnc3[nH]cc(-c4cccnc4)c23)C1 (stereo not drawn)
a: 0.51

q: Requested read-out: IC50. Entry: C=CC(=O)NC1CCC=C(c2ccnc3[nH]cc(-c4ccc[n+]([O-])c4)c23)C1 (stereo not drawn)
a: 0.93

q: Requested read-out: IC50. Entry: C=CC(=O)NC1CCC=C(c2ccnc3[nH]cc(-c4nncs4)c23)C1 (stereo not drawn)
a: 0.45

q: Requested read-out: IC50. Entry: C=CC(=O)NC1CCC=C(c2ccnc3[nH]cc(C4=CCCCC4)c23)C1 (stereo not drawn)
a: 0.48

---

# TARGET OR SYSTEM: purified recombinant human JAK2 protein (Homo sapiens)
# Construct: purchased Carna Biosciences, Inc
# Sequence (O60674 whole entry): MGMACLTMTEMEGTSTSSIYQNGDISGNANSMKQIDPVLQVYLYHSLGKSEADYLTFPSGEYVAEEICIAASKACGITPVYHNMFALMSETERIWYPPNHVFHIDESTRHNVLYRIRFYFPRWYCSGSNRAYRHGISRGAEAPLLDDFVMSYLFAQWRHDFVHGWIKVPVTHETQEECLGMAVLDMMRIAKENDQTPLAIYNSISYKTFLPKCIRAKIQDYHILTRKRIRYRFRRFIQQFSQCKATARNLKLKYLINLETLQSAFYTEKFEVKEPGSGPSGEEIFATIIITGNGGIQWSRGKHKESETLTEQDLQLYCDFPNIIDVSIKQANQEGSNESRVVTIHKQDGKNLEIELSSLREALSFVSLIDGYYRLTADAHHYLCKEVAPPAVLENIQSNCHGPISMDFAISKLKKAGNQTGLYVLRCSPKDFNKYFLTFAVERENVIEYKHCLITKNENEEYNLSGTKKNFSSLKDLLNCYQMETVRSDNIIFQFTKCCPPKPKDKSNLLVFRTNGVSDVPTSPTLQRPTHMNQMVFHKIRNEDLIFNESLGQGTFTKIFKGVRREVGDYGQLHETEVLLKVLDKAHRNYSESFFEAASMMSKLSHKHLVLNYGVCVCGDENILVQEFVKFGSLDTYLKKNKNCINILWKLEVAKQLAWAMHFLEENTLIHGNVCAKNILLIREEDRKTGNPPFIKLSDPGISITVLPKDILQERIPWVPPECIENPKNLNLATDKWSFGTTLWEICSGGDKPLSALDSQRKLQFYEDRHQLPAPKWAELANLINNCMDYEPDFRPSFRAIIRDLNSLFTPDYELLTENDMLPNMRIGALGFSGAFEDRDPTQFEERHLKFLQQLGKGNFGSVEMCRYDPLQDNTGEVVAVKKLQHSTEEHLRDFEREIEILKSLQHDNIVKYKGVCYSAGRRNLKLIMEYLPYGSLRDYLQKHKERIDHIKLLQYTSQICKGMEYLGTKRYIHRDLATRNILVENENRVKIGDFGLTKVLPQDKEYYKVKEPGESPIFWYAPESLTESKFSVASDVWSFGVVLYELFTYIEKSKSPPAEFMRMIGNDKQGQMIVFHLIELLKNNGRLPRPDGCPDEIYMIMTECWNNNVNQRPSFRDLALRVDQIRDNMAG
# RUN DESCRIPTION: Measurement of JAK2 kinase-inhibitory activity
# Format: biochemical
# DETAILS: FL-Peptide 22 1 μM, ATP 10 μM, 25° C., 80 minutes
RESULT TYPE: pIC50
Bear in mind: pIC50 is minus log10 of a mol/L concentration; give just that figure.

Check out these entries, answers already filled in.
{"columns": ["COMPOUND", "MEASURED NUMBER"],
 "data": [
  ["C=CC(=O)NC1CCC=C(c2ccnc3[nH]cc(C4=CCOC4)c23)C1 (centres unmarked) [Compound 34]", 6.01],
  ["C=CC(=O)NC1CCC=C(c2ccnc3[nH]cc(-c4nnco4)c23)C1 (centres unmarked) [Compound 49]", 6.01],
  ["C=CC(=O)NC1CCC=C(c2ccnc3[nH]cc(-c4nnc(C)o4)c23)C1 (centres unmarked) [Compound 50]", 6.04]
]}

q: Form field - read-out: pIC50; system: purified recombinant human JAK2 protein (Homo sapiens); submitted item: C=CC(=O)NC1CC=C(c2ccnc3[nH]cc(-c4nnco4)c23)C1 (centres unmarked) [Compound 57]
a: 6.06

q: Form field - read-out: pIC50; system: purified recombinant human JAK2 protein (Homo sapiens); submitted item: C=CC(=O)NC1CCC=C(c2ccnc3[nH]cc(-c4cnco4)c23)C1 (centres unmarked) [Compound 48]
a: 6.15

---

# TARGET OR SYSTEM: purified recombinant human JAK1 protein (Homo sapiens, UniProt P23458)
# Sequence (P23458 whole entry): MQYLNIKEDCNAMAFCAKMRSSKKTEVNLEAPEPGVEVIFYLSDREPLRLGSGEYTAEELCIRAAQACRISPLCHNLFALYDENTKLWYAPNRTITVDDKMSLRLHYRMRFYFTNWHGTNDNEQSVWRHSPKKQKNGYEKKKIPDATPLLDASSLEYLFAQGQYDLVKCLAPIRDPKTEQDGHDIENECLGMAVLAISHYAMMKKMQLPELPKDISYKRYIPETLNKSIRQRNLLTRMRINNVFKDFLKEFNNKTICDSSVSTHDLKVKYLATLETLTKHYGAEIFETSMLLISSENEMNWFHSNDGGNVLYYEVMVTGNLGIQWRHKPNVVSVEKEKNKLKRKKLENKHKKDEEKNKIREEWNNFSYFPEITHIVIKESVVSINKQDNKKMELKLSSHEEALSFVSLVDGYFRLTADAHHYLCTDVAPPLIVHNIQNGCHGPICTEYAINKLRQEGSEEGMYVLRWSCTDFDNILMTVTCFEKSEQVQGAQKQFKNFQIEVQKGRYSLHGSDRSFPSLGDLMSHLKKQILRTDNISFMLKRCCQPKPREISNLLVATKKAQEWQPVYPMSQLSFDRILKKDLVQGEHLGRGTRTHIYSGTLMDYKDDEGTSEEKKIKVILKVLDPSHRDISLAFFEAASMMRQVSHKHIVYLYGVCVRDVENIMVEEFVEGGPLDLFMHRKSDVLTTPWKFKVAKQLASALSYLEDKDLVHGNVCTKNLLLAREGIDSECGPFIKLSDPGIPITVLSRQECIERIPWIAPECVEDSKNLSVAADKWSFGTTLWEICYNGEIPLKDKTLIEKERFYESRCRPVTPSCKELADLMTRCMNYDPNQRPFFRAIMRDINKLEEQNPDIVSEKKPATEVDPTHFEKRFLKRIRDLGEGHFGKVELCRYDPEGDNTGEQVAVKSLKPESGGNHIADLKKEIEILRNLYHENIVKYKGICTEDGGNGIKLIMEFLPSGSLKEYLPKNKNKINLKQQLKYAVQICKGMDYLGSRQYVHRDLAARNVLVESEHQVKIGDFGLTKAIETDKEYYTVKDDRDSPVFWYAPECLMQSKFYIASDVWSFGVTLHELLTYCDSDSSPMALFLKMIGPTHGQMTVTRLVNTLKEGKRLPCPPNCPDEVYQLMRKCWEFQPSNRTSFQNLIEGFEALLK
# RUN DESCRIPTION: Measurement of JAK1 kinase-inhibitory activity
# DETAILS: substrate peptide 1 μM, ATP 75 M (so in the source), 25° C., 120 minutes
Field 'label' (enum: Condition met / Condition not met). Set to Condition met when IC50 is strictly under 6 µM; else Condition not met.

# count of solved cases: 5
{"columns": ["COMPOUND", "LABEL CLASS"],
 "data": [
  ["Cc1nc(-c2c[nH]c3ncc(-c4ccccc4)cc23)cs1 [Comparative Example 3, reference compound]", "Condition met"],
  ["C=CC(=O)NC1CCC=C(c2ccnc3[nH]cc(-c4n[nH]c(=O)o4)c23)C1 (stereo not drawn)", "Condition met"],
  ["C=CC(=O)NC1CCC=C(c2ccnc3[nH]cc(-c4cccnc4)c23)C1 (stereo not drawn)", "Condition not met"],
  ["C=CC(=O)NC1CCC=C(c2ccnc3[nH]cc(-c4nncs4)c23)C1 (stereo not drawn)", "Condition not met"],
  ["C=CC(=O)NC1CCC=C(c2ccnc3[nH]cc(-c4cccnc4F)c23)C1 (stereo not drawn)", "Condition met"]
]}

q: Does this compound meet the criterion IC50 < 6 µM? C=CC(=O)NC1CCC=C(c2ccnc3[nH]cc(C4=CC(=O)CCC4)c23)C1 (stereo not drawn)
a: Condition not met

---

# TARGET OR SYSTEM: purified recombinant human JAK3 protein (Homo sapiens, UniProt P52333)
# RUN DESCRIPTION: Measurement of JAK3 kinase-inhibitory activity
# DETAILS: substrate peptide 1 μM, ATP 5 μM, 25° C., 80 minutes
pIC50: −log10 of the molar value.
RESULT TYPE: pIC50

Check out these entries, answers already filled in.
{"columns": ["COMPOUND", "pIC50"],
 "data": [
  ["C=CC(=O)N[C@H]1CCC=C(c2ccnc3[nH]cc(-c4nnco4)c23)C1 [Compound 55]", "> 9.52"],
  ["C=CC(=O)NC1CCC=C(c2ccnc3[nH]cc(-c4nnco4)c23)C1 (stereo not shown) [Compound 49]", "> 9.52"],
  ["C=CC(=O)NC1CCC=C(c2ccnc3[nH]cc(-c4ccc(F)nc4)c23)C1 (stereo not shown) [Compound 37]", "> 9.52"]
]}

q: Requested read-out: pIC50. Entry: C=CC(=O)NC1CCC=C(c2ccnc3[nH]cc(-c4nn(C)c(=O)o4)c23)C1 (stereo not shown) [Compound 53]
a: > 9.52

q: Requested read-out: pIC50. Entry: C=CC(=O)NC1CCC=C(c2ccnc3[nH]cc(-c4n[nH]c(=O)o4)c23)C1 (stereo not shown) [Compound 52]
a: > 9.52

q: Requested read-out: pIC50. Entry: C=CC(=O)N[C@H]1CCC=C(c2ccnc3[nH]cc(-c4ccno4)c23)C1 [Compound 59]
a: > 9.52

q: Requested read-out: pIC50. Entry: C=CC(=O)NC1CCC=C(c2ccnc3[nH]cc(-c4ccc(C=O)o4)c23)C1 (stereo not shown) [Compound 9]
a: > 9.52

q: Requested read-out: pIC50. Entry: C=CC(=O)NC1CCC=C(c2c(OC)cnc3[nH]cc(-c4ccco4)c23)C1 (stereo not shown) [Compound 17]
a: > 9.52

q: Requested read-out: pIC50. Entry: C=CC(=O)NC1CCC=C(c2ccnc3[nH]cc(C4=CCOC4)c23)C1 (stereo not shown) [Compound 34]
a: > 9.52

q: Requested read-out: pIC50. Entry: C=CC(=O)NC1CCC=C(c2ccnc3[nH]cc(-c4ccc(CO)o4)c23)C1 (stereo not shown) [Compound 10]
a: > 9.52

q: Requested read-out: pIC50. Entry: C=CC(=O)NC1CCC=C(c2ccnc3[nH]cc(-c4ccco4)c23)C1 (stereo not shown) [Compound 12]
a: > 9.52

q: Requested read-out: pIC50. Entry: C=CC(=O)NC1CCC=C(c2ccnc3[nH]cc(-c4cc(CO)co4)c23)C1 (stereo not shown) [Compound 14]
a: > 9.52

---

# TARGET OR SYSTEM: purified recombinant human JAK3 protein (Homo sapiens, UniProt P52333)
# RUN DESCRIPTION: Measurement of JAK3 kinase-inhibitory activity
# DETAILS: substrate peptide 1 μM, ATP 5 μM, 25° C., 80 minutes
RESULT TYPE: log10 IC50 (log10 of the value in nM)
Note the log scale: values are log10 of IC50 expressed in nM.

Check out these entries, answers already filled in.
{"columns": ["MOLECULE", "TARGET OR SYSTEM", "log10 IC50"],
 "data": [
  ["C=CC(=O)NC1CCC=C(c2ccnc3[nH]cc(C4=CCOCC4)c23)C1 (stereo not shown) [Compound 31]", "purified recombinant human JAK3 protein (Homo sapiens, UniProt P52333)", -0.15],
  ["C1=C(c2ccnc3[nH]ccc23)CCCC1 [Comparative Example 1, reference compound]", "purified recombinant human JAK3 protein (Homo sapiens, UniProt P52333)", 2.40],
  ["C=CC(=O)NC1CCC=C(c2ccnc3[nH]cc(-c4cccnc4OC)c23)C1 (stereo not shown) [Compound 6]", "purified recombinant human JAK3 protein (Homo sapiens, UniProt P52333)", -0.38],
  ["C=CC(=O)NC1CCC=C(c2ccnc3[nH]cc(-c4cncs4)c23)C1 (stereo not shown) [Compound 13]", "purified recombinant human JAK3 protein (Homo sapiens, UniProt P52333)", -0.47],
  ["C=CC(=O)NC1CCC=C(c2ccnc3[nH]cc(-c4nnc(CC)o4)c23)C1 (stereo not shown) [Compound 51]", "purified recombinant human JAK3 protein (Homo sapiens, UniProt P52333)", -0.21],
  ["C1=C(c2ccnc3[nH]ccc23)CCC1 [Comparative Example 2, reference compound]", "purified recombinant human JAK3 protein (Homo sapiens, UniProt P52333)", 2.54]
]}

q: Requested read-out: log10 IC50. Entry: C=CC(=O)NC1CCC=C(c2ccnc3[nH]cc(C4=CC(=O)CCC4)c23)C1 (stereo not shown) [Compound 32]
a: -0.14
